# maps each entry to its Residual activity ratio (%)
- Test system: recombinant FAD-GDH (rAT-FAD-GDH) derived from Aspergillus terreus
- Experiment: Thermal stabilization effect of stabilizing agents on rAT-FAD-GDH in solution (Example 9)
- Assay type: physicochemical
- Recorded Conditions: Table 10; buffer 50 mM K-PB; 50° C., 15 min versus 4° C.; stabilizer at each final concentration described in Table 1
Numbers only here, please. The scale is %.

Compound	Units	Reported Value
O=C[C@@H](O)[C@H](O)[C@H](O)CO [D-(−)-arabinose]	%	2.5

Bench note: what Residual activity ratio (%) did Cl.NCCCC[C@H](N)C(=O)O [L-lysine hydrochloride] show?
3.5

Suppose we examine the compound CNCC(=O)O [Sarcosine] ; what Residual activity ratio (%) value has been reported?
3.0

Consider the compound OC[C@H]1O[C@@](CO)(O[C@H]2O[C@H](CO)[C@@H](O)[C@H](O)[C@H]2O)[C@@H](O[C@H]2O[C@H](CO)[C@@H](O)[C@H](O)[C@H]2O)[C@@H]1O [D-(+)-melezitose] and give its measured Residual activity ratio (%).
6.9

----------
- System: recombinant FAD-GDH (rAT-FAD-GDH) derived from Aspergillus terreus
- Experiment: Thermal stabilization effect of stabilizing agents on rAT-FAD-GDH in solution (Example 9)
- Format: physicochemical
- Recorded Conditions: Table 10; buffer 50 mM K-PB; stabilizer at each final concentration described in Table 1
Rule: GLD activity value (U/ml) 50° C., 15 min under 0.2 U/ml gives No, otherwise Yes.

Please review the entries below; each comes with its answer.
Compound	System Under Test	Classification
O=C[C@@H](O)[C@@H](O)[C@H](O)[C@H](O)CO [D-(+)-mannose]	recombinant FAD-GDH (rAT-FAD-GDH) derived from Aspergillus terreus	Yes
O=C(O)C1OC(O)C(O)C(O)C1O (centres unmarked)	recombinant FAD-GDH (rAT-FAD-GDH) derived from Aspergillus terreus	No
CC(C)[C@H](N)C(=O)O	recombinant FAD-GDH (rAT-FAD-GDH) derived from Aspergillus terreus	No
OC[C@H]1O[C@@](CO)(O[C@H]2O[C@H](CO)[C@@H](O)[C@H](O)[C@H]2O)[C@@H](O[C@H]2O[C@H](CO)[C@@H](O)[C@H](O)[C@H]2O)[C@@H]1O [D-(+)-melezitose]	recombinant FAD-GDH (rAT-FAD-GDH) derived from Aspergillus terreus	No

Quick check, GLD activity value (U/ml) 50° C., 15 min >= 0.2 U/ml? OC[C@H]1O[C@@](CO)(O[C@H]2O[C@H](CO)[C@@H](O)[C@H](O)[C@H]2O)[C@@H](O)[C@@H]1O
No

Determine whether measured GLD activity value (U/ml) 50° C., 15 min meets or exceeds 0.2 U/ml for O=C[C@@H](O)[C@H](O)[C@H](O)CO [D-(−)-arabinose]
No

Assess whether reported GLD activity value (U/ml) 50° C., 15 min for N[C@@H](Cc1c[nH]cn1)C(=O)O sits at 0.2 U/ml or higher.
No

Has O.O.OC[C@H]1O[C@H](O[C@H]2O[C@H](CO)[C@@H](O)[C@H](O)[C@H]2O)[C@H](O)[C@@H](O)[C@@H]1O [D-(+)-trehalosedihydrate] a recorded GLD activity value (U/ml) 50° C., 15 min greater than or equal to 0.2 U/ml?
Yes

----------
- Test system: recombinant FAD-GDH (rAT-FAD-GDH) derived from Aspergillus terreus
- Experiment: Thermal stabilization effect of stabilizing agents on rAT-FAD-GDH in solution (Example 9)
- Assay type: physicochemical
- Recorded Conditions: Table 10; buffer 50 mM K-PB; 50° C., 15 min versus 4° C.; stabilizer at each final concentration described in Table 1
Residual activity ratio (%) listing for selected compounds.
Response body: numeric value in %, unit text excluded.

Compound	Residual activity ratio (%)
N[C@H](Cc1ccccc1)C(=O)O [D-phenylalanine]	2.3
N[C@@H](CC(=O)O)C(=O)O [L-aspartic acid]	0.2
CC(C)[C@H](N)C(=O)O [L-valine]	1.6

Request - read-out Residual activity ratio (%) | tested on recombinant FAD-GDH (rAT-FAD-GDH) derived from Aspergillus terreus | compound O=C[C@H](O)[C@@H](O)[C@H](O)[C@H](O)C(=O)[O-].[Na+] [D-sodium glucuronate]
10.0

Which measured Residual activity ratio (%) belongs to NCCS(=O)(=O)O [Taurine] , tested on recombinant FAD-GDH (rAT-FAD-GDH) derived from Aspergillus terreus?
3.2

Can you look up Residual activity ratio (%) on recombinant FAD-GDH (rAT-FAD-GDH) derived from Aspergillus terreus for N=C(N)NCCC[C@H](N)C(=O)O [L-arginine] ?
0.1

----------
- Test system: recombinant FAD-GDH (rAT-FAD-GDH) derived from Aspergillus terreus
- Experiment: Thermal stabilization effect of stabilizing agents on rAT-FAD-GDH in solution (Example 9)
- Assay type: physicochemical
- Recorded Conditions: Table 10; buffer 50 mM K-PB; 50° C., 15 min versus 4° C.; stabilizer at each final concentration described in Table 1
Category | rule: reported Residual activity ratio (%) within range, see low value: < 3%; medium value: ≥ 3% and < 6%; high value: ≥ 6%

Previously resolved entries follow.
Compound	System Under Test	Classification
O=C[C@@H](O)[C@@H](O)[C@H](O)[C@H](O)CO [D-(+)-mannose]	recombinant FAD-GDH (rAT-FAD-GDH) derived from Aspergillus terreus	high value
N[C@@H](CC(=O)[O-])C(=O)[O-].[Na+].[Na+] [Sodium L-aspartate]	recombinant FAD-GDH (rAT-FAD-GDH) derived from Aspergillus terreus	medium value
NC(=O)CC[C@H](N)C(=O)O	recombinant FAD-GDH (rAT-FAD-GDH) derived from Aspergillus terreus	low value
O=C(O)[C@H]1CCCN1	recombinant FAD-GDH (rAT-FAD-GDH) derived from Aspergillus terreus	low value

Assign a bin to O=C([O-])[C@H](O)[C@@H](O)[C@H](O)[C@H](O)CO.[Na+] [sodium gluconate]
medium value

Band assignment needed for N[C@H](CCC(=O)O)C(=O)O please.
medium value

Category of CO[C@H]1O[C@H](CO)[C@@H](O)[C@H](O)[C@H]1O [Methyl-a-D-glucoside] :
high value

----------
- Test system: recombinant FAD-GDH (rAO-FAD-GDH) derived from Aspergillus oryzae
- Experiment: Thermal stabilization effect of stabilizing agents on rAO-FAD-GDH in solution (Examples 3-6)
- Format: physicochemical
- Recorded Conditions: stabilizer final concentration 1%; rAO-FAD-GDH about 2 U/mL, 50 mM potassium phosphate buffer pH 5.5, 0.1% Triton X-100; 4° C. sample = 100
Cut-off 30% on Residual activity ratio (%) after treatment at 50° C., 15 min, inclusive. At or above means true (1); below means false (0).

These solved cases illustrate the format of a correct answer.
Compound	Classification
NCC(=O)O	false (0)
N=C(N)NCCC[C@H](N)C(=O)O	false (0)
OC[C@@H](O)[C@H]1OC[C@H](O)[C@H]1O	false (0)

Has O=C[C@H](O)[C@@H](O)[C@H](O)CO [D-(+)-xylose] a recorded Residual activity ratio (%) after treatment at 50° C., 15 min greater than or equal to 30%?
true (1)

Identify whether the reported Residual activity ratio (%) after treatment at 50° C., 15 min of the following compound is 30% or greater: O=C(O)[C@@H]1CCCN1 [L-(−)-proline]
false (0)

Residual activity ratio (%) after treatment at 50° C., 15 min >= 30% for C[C@H](N)C(=O)O ?
false (0)

----------
- Tested on: recombinant FAD-GDH (rAT-FAD-GDH) derived from Aspergillus terreus
- Experiment: Thermal stabilization effect of stabilizing agents on rAT-FAD-GDH in solution (Example 9)
- Format: physicochemical
- Recorded Conditions: Table 10; buffer 50 mM K-PB; stabilizer at each final concentration described in Table 1
Binary call on GLD activity value (U/ml) 50° C., 15 min with cut-off 0.07 U/ml: strictly below means condition met, and equality or higher means condition not met.

Molecule	Classification
N[C@@H](Cc1ccccc1)C(=O)O	condition met

Problem: For the molecule O=C(O)[C@@H]1CCCN1 [L-(−)-proline] , is GLD activity value (U/ml) 50° C., 15 min under 0.07 U/ml?
condition met

Take the molecule OC[C@H]1O[C@H](OCC2O[C@@H](O)[C@H](O)[C@@H](O)[C@@H]2O)[C@H](O)[C@@H](O)[C@H]1O (stereo partly drawn) [a-D-(+)-melibiose] and say whether its GLD activity value (U/ml) 50° C., 15 min is less than 0.07 U/ml.
condition not met

Identify whether the molecule CC[C@H](C)[C@H](N)C(=O)O (racemic) records GLD activity value (U/ml) 50° C., 15 min below 0.07 U/ml.
condition met

----------
Some compounds, each annotated with its measured Residual activity ratio (%) after treatment at 50° C., 15 min.
- System: recombinant FAD-GDH (rAO-FAD-GDH) derived from Aspergillus oryzae
- Experiment: Thermal stabilization effect of stabilizing agents on rAO-FAD-GDH in solution (Examples 3-6)
- Type: physicochemical
- Recorded Conditions: stabilizer final concentration 0.10%; rAO-FAD-GDH, pH 5.5
Please give a number only; it is taken to be in %.

Smiles Code	System Under Test	Reported Value
CC(C)C[C@H](N)C(=O)O	recombinant FAD-GDH (rAO-FAD-GDH) derived from Aspergillus oryzae	22.2
N[C@@H](Cc1c[nH]c2ccccc12)C(=O)O	recombinant FAD-GDH (rAO-FAD-GDH) derived from Aspergillus oryzae	24.3
N[C@H](Cc1ccccc1)C(=O)O	recombinant FAD-GDH (rAO-FAD-GDH) derived from Aspergillus oryzae	23.6

Below: the item to evaluate.
Quick check: Residual activity ratio (%) after treatment at 50° C., 15 min of N[C@H](CCC(=O)O)C(=O)O ?
23.2

Data origin, for the record: patent US20080090278A1
